Data credit: paper PMC8786932

assay: in vitro; assay type: cell-based, human; settings: human; nuclei count, 44 h, top 20 μM; read-out: HFF EC50
pEC50: −log10 of the molar value.
READOUT_LABEL: pEC50

>  <SAMPLE_SMILES>
COc1ccc(NC(=O)N2CCCCN3[C@H](CO)[C@H](c4ccc(C#Cc5ccccc5)cc4)[C@@H]3C2)cc1

>  <VALUE_MEASURED>
< 4.70

$$$$
>  <SAMPLE_SMILES>
COc1ccc(NC(=O)N2CCCCN3[C@H](CN(C)C)[C@H](c4ccc(C#Cc5ccccc5)cc4)[C@@H]3C2)cc1

>  <VALUE_MEASURED>
5.10

$$$$
>  <SAMPLE_SMILES>
CN(C[C@@H]1[C@H](c2ccc(C#Cc3ccccc3)cc2)[C@@H]2CN(C(=O)Nc3ccc(OC4CC4)cc3)CCCCN12)S(C)(=O)=O

>  <VALUE_MEASURED>
< 4.70

$$$$
>  <SAMPLE_SMILES>
COc1ccc(NC(=O)N2CCCCN3[C@H](CN(C)S(C)(=O)=O)[C@H](c4ccc(C#Cc5ccccc5)cc4)[C@@H]3C2)cc1

>  <VALUE_MEASURED>
< 4.70

$$$$

====

test: in vivo; design: species or system mouse; details: female, CD1, mouse, in vivo, po, 10 mg/kg/day, mouse, 10 mg/kg/day p.o., Day 8
READOUT_LABEL: CL/F (mL/min/kg)

>  <SAMPLE_SMILES>
COc1ccc(NC(=O)N2CCCCN3[C@H](CN(C)C)[C@H](c4ccc(C#Cc5ccccc5)cc4)[C@@H]3C2)cc1

>  <READOUT_LABEL>
CL/F

>  <VALUE_MEASURED>
10

$$$$

====

Each item that follows carries a reported EC50.
experiment: in vitro; format: cell-based, human; conditions: human; nuclei count, 44 h, top 20 μM; read-out: A549 EC50

>  <MOLECULE>
COc1ccc(NC(=O)N2CCCCN3[C@H](CN(C)S(C)(=O)=O)[C@H](c4ccc(C#Cc5ccccc5)cc4)[C@@H]3C2)cc1 [BRD8494]

>  <RELATION_OPERATOR>
>

>  <EC50 [µM]>
20

$$$$
>  <MOLECULE>
COc1ccc(NC(=O)N2CCCCN3[C@H](CN(C)C)[C@H](c4ccc(C#Cc5ccccc5)cc4)[C@@H]3C2)cc1 [BRD7929]

>  <RELATION_OPERATOR>
=

>  <EC50 [µM]>
5.37

$$$$
>  <MOLECULE>
CN(C[C@@H]1[C@H](c2ccc(C#Cc3ccccc3)cc2)[C@@H]2CN(C(=O)Nc3ccc(OC4CC4)cc3)CCCCN12)S(C)(=O)=O [BRD2987]

>  <RELATION_OPERATOR>
=

>  <EC50 [µM]>
2.17

$$$$
>  <MOLECULE>
COc1ccc(NC(=O)N2CCCCN3[C@H](CO)[C@H](c4ccc(C#Cc5ccccc5)cc4)[C@@H]3C2)cc1 [BRD3444]

>  <RELATION_OPERATOR>
>

>  <EC50 [µM]>
20

$$$$

====

Each item that follows carries a reported pEC50.
Target: N. caninum expressing lacZ
Experiment: Neospora caninum β-galactosidase assay
Assay type: cell-based
Settings: Table S3, 72 h, lacZ; read-out: N. caninum EC50
Method: β-galactosidase assays were conducted using tissue culture grade 96-well plates (TPP) containing confluent monolayers of HFF cells. […] Briefly, parasite containing monolayers were lysed with 1.0% Triton X-100 and β-gal activity determined by adding 1 mM chlorophenolred-β-D-galactopyranoside followed by monitoring absorption at 570 nm on a Cytation 3 multi-mode imager (BioTek), as described.
pEC50: −log10 of the molar value.
READOUT_LABEL: pEC50

>  <SAMPLE_SMILES>
COc1ccc(NC(=O)N2CCCCCN3[C@H](CO)[C@H](c4ccc(C#Cc5ccccc5)cc4)[C@@H]3C2)cc1

>  <TESTED_TARGET>
N. caninum expressing lacZ

>  <VALUE_MEASURED>
6.81

$$$$
>  <SAMPLE_SMILES>
COc1ccc(NC(=O)N2CCCCN3C[C@H](c4ccc(C#Cc5ccccc5)cc4)[C@@H]3C2)cc1

>  <TESTED_TARGET>
N. caninum expressing lacZ

>  <VALUE_MEASURED>
6.71

$$$$
>  <SAMPLE_SMILES>
COc1ccc(NC(=O)N2C[C@@H](O)[C@@H](O)CN3[C@H](CN(C)C)[C@H](c4ccc(C#Cc5ccccc5)cc4)[C@@H]3C2)cc1

>  <TESTED_TARGET>
N. caninum expressing lacZ

>  <VALUE_MEASURED>
7.54

$$$$
